Target: T1, Kap104p, P38217
T1 chain: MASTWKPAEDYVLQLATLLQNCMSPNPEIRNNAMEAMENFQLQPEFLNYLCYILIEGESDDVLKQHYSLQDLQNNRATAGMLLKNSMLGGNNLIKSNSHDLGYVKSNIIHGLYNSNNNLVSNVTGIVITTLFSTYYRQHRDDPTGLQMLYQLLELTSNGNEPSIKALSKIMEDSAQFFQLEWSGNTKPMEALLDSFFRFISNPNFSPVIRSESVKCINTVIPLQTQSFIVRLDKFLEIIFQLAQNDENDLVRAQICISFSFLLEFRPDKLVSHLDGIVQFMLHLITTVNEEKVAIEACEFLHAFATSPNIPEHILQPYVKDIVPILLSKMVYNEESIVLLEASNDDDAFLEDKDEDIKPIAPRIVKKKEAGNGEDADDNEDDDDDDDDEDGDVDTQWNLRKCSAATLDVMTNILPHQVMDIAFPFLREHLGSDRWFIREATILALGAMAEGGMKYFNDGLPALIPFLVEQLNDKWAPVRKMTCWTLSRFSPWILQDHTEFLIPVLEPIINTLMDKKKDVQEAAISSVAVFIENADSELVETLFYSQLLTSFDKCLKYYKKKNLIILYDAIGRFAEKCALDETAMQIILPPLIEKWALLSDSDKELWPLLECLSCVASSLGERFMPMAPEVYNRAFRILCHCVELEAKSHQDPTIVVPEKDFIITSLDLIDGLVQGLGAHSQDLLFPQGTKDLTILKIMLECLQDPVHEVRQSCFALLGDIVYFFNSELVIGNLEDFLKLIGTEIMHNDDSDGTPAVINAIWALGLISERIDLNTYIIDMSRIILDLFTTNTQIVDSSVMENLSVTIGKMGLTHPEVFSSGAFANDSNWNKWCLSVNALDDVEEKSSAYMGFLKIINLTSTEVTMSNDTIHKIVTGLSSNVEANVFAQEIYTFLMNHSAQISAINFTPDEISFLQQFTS
Experiment: ITC
Details: chain shown with the change;; parent: 0.09 ± 0.7
Each record here notes measured other: TΔS.
Hi, when you answer, please include the unit after the number. Thanks!

Observe how each entry below is paired with its result.
1) RDRNDRDRDYNHRSGGNHRRNGAAARGGYNRRNNGYHPYNR (domain or fragment, S. cerevisiae, UniProt Q99383 494-534, looked up, Hrp1p NLS, residues 494-534; source: E. coli BL21(DE3), purified (amylose resin, cation exchange)) [MBP–Hrp1p NLS 516RGG518/AAA] : 2 kcal/mol/K
2) RDRNDRDRDYNHRSGGNHAAAARGGRGGYNRRNNGYHPYNR (domain or fragment, S. cerevisiae, UniProt Q99383 494-534, looked up, Hrp1p NLS, residues 494-534; source: E. coli BL21(DE3), purified (amylose resin, cation exchange)) [MBP–Hrp1p NLS 512RRNG515/AAAA] : 1.5 kcal/mol/K
3) RDRNDRDRDYNHRSGGNHRRNGRGGAAAAARRNNGYHPYNR (domain or fragment, S. cerevisiae, UniProt Q99383 494-534, looked up, Hrp1p NLS, residues 494-534; source: E. coli BL21(DE3), purified (amylose resin, cation exchange)) [MBP–Hrp1p NLS 519RGGYN523/AAAAA] : -3.8 kcal/mol/K

Q) Quick one: other: TΔS of RDRNDRDRDYNHAAAANHRRNGRGGRGGYNRRNNGYHPYNR (domain or fragment, S. cerevisiae, UniProt Q99383 494-534, looked up, Hrp1p NLS, residues 494-534; source: E. coli BL21(DE3), purified (amylose resin, cation exchange)) [MBP–Hrp1p NLS 506RSGG509/AAAA] ?
A) -2.6 kcal/mol/K
